- MEASUREMENT TARGET: SARM1 (Homo sapiens)
- Construct: inventors produced full-length SARM1 for NAD enzyme activity experiments, and used it for screening; His (C); made in house; host or cells: HEK293 cells, transient transfection; supernatant of digitonin lysate, no further purification described
- Sequence (Q6SZW1 28-724, species assumed): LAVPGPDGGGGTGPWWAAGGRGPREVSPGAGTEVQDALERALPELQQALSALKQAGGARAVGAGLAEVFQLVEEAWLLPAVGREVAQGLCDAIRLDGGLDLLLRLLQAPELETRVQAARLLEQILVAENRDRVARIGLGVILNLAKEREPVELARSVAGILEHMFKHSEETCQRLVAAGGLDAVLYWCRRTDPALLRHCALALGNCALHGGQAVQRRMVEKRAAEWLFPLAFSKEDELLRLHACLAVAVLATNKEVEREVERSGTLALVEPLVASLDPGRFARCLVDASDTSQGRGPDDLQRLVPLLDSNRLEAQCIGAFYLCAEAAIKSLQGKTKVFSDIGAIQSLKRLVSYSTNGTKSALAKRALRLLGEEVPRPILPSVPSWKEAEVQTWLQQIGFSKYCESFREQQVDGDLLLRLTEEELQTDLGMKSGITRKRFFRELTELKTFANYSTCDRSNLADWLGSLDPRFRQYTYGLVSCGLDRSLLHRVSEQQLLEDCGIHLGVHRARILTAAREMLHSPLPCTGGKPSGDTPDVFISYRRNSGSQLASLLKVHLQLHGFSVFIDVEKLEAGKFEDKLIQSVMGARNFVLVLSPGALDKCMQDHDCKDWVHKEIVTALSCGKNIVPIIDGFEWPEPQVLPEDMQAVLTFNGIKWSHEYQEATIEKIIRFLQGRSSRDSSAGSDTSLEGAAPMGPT
- TEST SUMMARY: In vitro biochemical assay for inhibiting SARM1 enzyme activity (PC6 fluorescence, NADase)
- EXPERIMENTAL CONTEXT: full-length SARM1 from transfected HEK293 cells; 50 µM NAD, 50 µM PC6, 50 µM NMN activator; room temperature, 30 minutes; read-out: IC50
- Protocol: The gene sequence of SARM1 protein was amplified using PCR, and the PCR amplification product was constructed into pcDNA3.1-HIS-C plasmid. The above construction was completed by YouBio(Hunan, China). HEK293 cells were cultured in 10 cm dishes using DMEM, and the cells were transfected with 15 μg pcDNA3.1-SARM[…]-C expression plasmid on the following day. […]
Property: IC50; scope: individual compounds

Example results:
[[record]]
molecule = "O=C(NCc1ccc(Cl)c(Cl)c1)Nc1ccc2c(c1)COc1cnccc1-2"
result = "1000 to 10000 nM"

[[record]]
molecule = "O=C(CCc1ccc(F)cc1F)Nc1ccc2c(c1)COc1cnccc1-2"
result = "100 to 1000 nM"

[[record]]
molecule = "O=C(Cc1ccc(F)cc1)Nc1ccc2c(c1)COc1cnccc1-2"
result = "1000 to 10000 nM"

[[record]]
molecule = "O=C(CCc1ccc(F)cc1)Nc1cc2c(cn1)-c1ccncc1OC2"
result = "< 100 nM"


Now consider a different compound.
Would you please give the reported IC50 of "C#Cc1ccc(CCC(=O)Nc2ccc3c(c2)COc2cnccc2-3)cc1" with SARM1 (Homo sapiens)?
< 100 nM

* * *

- MEASUREMENT TARGET: SARM1 (Homo sapiens)
- Construct: inventors produced full-length SARM1 for NAD enzyme activity experiments, and used it for screening; His (C); made in house; host or cells: HEK293 cells, transient transfection; supernatant of digitonin lysate, no further purification described
- TEST SUMMARY: In vitro biochemical assay for inhibiting SARM1 enzyme activity (PC6 fluorescence, NADase)
- EXPERIMENTAL CONTEXT: full-length SARM1 from transfected HEK293 cells; 50 µM NAD, 50 µM PC6, 50 µM NMN activator; room temperature, 30 minutes; read-out: IC50
pIC50: −log10 of the molar value.
MEASURED QUANTITY: pIC50

[[record]]
compound = "[2H]C1Oc2cnccc2-c2ccc(N3CCC(Cc4ccc(F)cc4)C3=O)cc21 (stereo not drawn) [Compound 145]"
result = "> 7.00"

[[record]]
compound = "[2H]C1(Cc2ccc(F)cc2)CCN(c2ccc3c(c2)COc2cnccc2-3)C1=O (stereo not drawn) [Compound 139]"
result = "> 7.00"

[[record]]
compound = "O=C1C(Cc2ccc(Cl)nc2)CCN1c1ccc2c(c1)COc1cnccc1-2 (stereo not drawn) [Compound 17]"
result = "6.00 to 7.00"

[[record]]
compound = "O=C(CCc1ccc(Cl)nc1)Nc1ccc2c(c1)COc1cnccc1-2 [Compound 26]"
result = "> 7.00"

[[record]]
compound = "O=C(CCc1ccc(F)c(F)c1)Nc1ccc2c(c1)COc1cnccc1-2 [Compound 25]"
result = "> 7.00"


Consider the compound NC(Cc1ccc(F)cc1)C(=O)Nc1ccc2c(c1)COc1cnccc1-2 (stereo not drawn) [Compound 52] and give its recorded pIC50.
6.00 to 7.00

In one line, give reported pIC50 of the entry Cc1c(NC(=O)CCc2ccc(F)cc2)ccc2c1COc1cnccc1-2 [Compound 131] .
5.00 to 6.00

In one line, give reported pIC50 of the entry O=C(CCc1ccc(Cl)cc1F)Nc1ccc2c(c1)COc1cnccc1-2 [Compound 40] .
5.00 to 6.00

Read off the recorded pIC50 for O=C1C(Cc2ccc(Cl)cc2F)CCN1c1ccc2c(c1)COc1cnccc1-2 (stereo not drawn) [Compound 3]
5.00 to 6.00

Reference source for all entries: patent EP4782449A1
